Entries and their measured Inhibition follow.
System: Cricetinae gen. sp.
Test: Inhibition of lipid synthesis in hamster flank gland after administration of 0.1 mg.
Format: functional

[
  {
    "MOLECULE": "C[C@]12C=CC(=O)C=C1CCC1C2C(=O)C[C@@]2(C)C1CC[C@]2(Cl)[S+]([O-])Cc1ccccc1 (some centres not stated)",
    "Inhibition": "<70%"
  },
  {
    "MOLECULE": "C[C@]12C=CC(=O)C=C1CCC1C2C(=O)C[C@@]2(C)C1CC[C@H]2Sc1ccccc1 (some centres not stated)",
    "Inhibition": "<25%"
  },
  {
    "MOLECULE": "C[C@]12C=CC(=O)C=C1CCC1C2CC[C@@]2(C)C1CC[C@]2(Cl)[S+]([O-])Cc1ccccc1 (some centres not stated)",
    "Inhibition": "<40%"
  },
  {
    "MOLECULE": "CCCCC[S+]([O-])[C@@]1(Cl)CCC2C3CCC4=CC(=O)C=C[C@]4(C)C3C(=O)C[C@@]21C (some centres not stated)",
    "Inhibition": "<29%"
  },
  {
    "MOLECULE": "C[C@]12C=CC(=O)C=C1CCC1C2C(=O)C[C@@]2(C)C1CC[C@]2(Cl)S(=O)(=O)Cc1ccccc1 (some centres not stated)",
    "Inhibition": "<31%"
  },
  {
    "MOLECULE": "C[C@]12C=CC(=O)C=C1CCC1C2[C@@H](O)C[C@@]2(C)C1CC[C@]2(Cl)[S+]([O-])Cc1ccccc1 (some centres not stated)",
    "Inhibition": "<20%"
  },
  {
    "MOLECULE": "C[C@]12C=CC(=O)C=C1CCC1C2C(=O)C[C@@]2(C)C1CC[C@H]2SCc1ccccc1 (some centres not stated)",
    "Inhibition": "<29%"
  }
]

All values here come from ChEMBL document CHEMBL1122313.
